- Protocol details: Decadiene/water partition coefficient, logD of compound at pH 7.4 by HPLC analysis
- Format: physicochemical
Recorded metric: logD hydrocarbon water
Answer field: number only, no words.

CC(C)C[C@@H]1NC(=O)[C@H]([C@@H](C)O)N(C)C(=O)[C@H]2CCCN2C(=O)[C@H](CC(C)C)NC(=O)[C@H](C)N(C)C(=O)[C@H](CC(C)C)NC(=O)[C@H](Cc2ccccc2)N(C)C(=O)[C@H]2CCCN2C(=O)[C@H](CC(C)C)NC(=O)[C@H](C)N(C)C1=O | 3.7
CC(C)C[C@@H]1NC(=O)[C@H](C)N(C)C(=O)[C@H]2CCCN2C(=O)[C@H](CC(C)C)NC(=O)[C@H]([C@@H](C)O)N(C)C(=O)[C@H](CC(C)C)NC(=O)[C@H](C)N(C)C(=O)[C@H]2CCCN2C(=O)[C@H](CC(C)C)NC(=O)[C@H]([C@@H](C)O)N(C)C1=O | 1
CC(C)C[C@@H]1NC(=O)[C@@H]2CCCN2C(=O)[C@H]2CCCN2C(=O)[C@H](CC(C)C)NC(=O)[C@H](C)N(C)C(=O)[C@H](CC(C)C)NC(=O)[C@@H]2CCCN2C(=O)[C@H]2CCCN2C(=O)[C@H](CC(C)C)NC(=O)[C@H](C)N(C)C1=O | 1.6
CC(C)C[C@@H]1NC(=O)[C@H](C)N(C)C(=O)[C@H](CC(C)C)NC(=O)[C@H](C(C)C)N(C)C(=O)[C@@H](C)N(C)C(=O)[C@H](CC(C)C)NC(=O)[C@H](C)N(C)C(=O)[C@H](CC(C)C)NC(=O)[C@H](C(C)C)N(C)C(=O)[C@@H](C)N(C)C1=O | 3.8
CC(C)C[C@@H]1NC(=O)[C@H](C)N(C)C(=O)[C@H](CC(C)C)NC(=O)[C@H]2CCCN2C(=O)[C@@H]2CCCN2C(=O)[C@H](CC(C)C)NC(=O)[C@H](C)N(C)C(=O)[C@H](CC(C)C)NC(=O)[C@H](C(C)C)N(C)C(=O)[C@@H](C)N(C)C1=O | 3.1
CC(C)C[C@@H]1NC(=O)[C@H](C)N(C)C(=O)[C@H]2CCCN2C(=O)[C@H](CC(C)C)NC(=O)[C@H](C)N(C)C(=O)[C@H](CC(C)C)NC(=O)[C@H](C)N(C)C(=O)[C@@H]2C[C@@H](O)CN2C(=O)[C@H](CC(C)C)NC(=O)[C@H](C)N(C)C1=O | 0.2

-- ask What value of logD hydrocarbon water has been recorded for this entry: CC(C)C[C@@H]1NC(=O)[C@H](C(C)C)N(C)C(=O)[C@H]2CCCN2C(=O)[C@H](CC(C)C)NC(=O)[C@H](C)N(C)C(=O)[C@H](CC(C)C)NC(=O)[C@H](C(C)C)N(C)C(=O)[C@H]2CCCN2C(=O)[C@H](CC(C)C)NC(=O)[C@H](C)N(C)C1=O
-- reply 3.8

###

As shown below, each of these compounds has a reported logD value.
- Protocol details: Octanol/water partition coefficient, logD of compound at pH 7.4 by HPLC analysis
- Type: physicochemical
Answer field: number only, no words.

CC(C)C[C@@H]1NC(=O)[C@H](C)N(C)C(=O)[C@H]2CCCN2C(=O)[C@H](CC(C)C)NC(=O)[C@H](C)N(C)C(=O)[C@H](CC(C)C)NC(=O)[C@H](C)N(C)C(=O)[C@H]2CCCN2C(=O)[C@H](CC(C)C)NC(=O)[C@H](C)N(C)C1=O | 4.7
CC(C)C[C@@H]1NC(=O)[C@@H]2CCCN2C(=O)[C@H]2CCCN2C(=O)[C@H](CC(C)C)NC(=O)[C@H](C)N(C)C(=O)[C@H](CC(C)C)NC(=O)[C@@H]2CCCN2C(=O)[C@H]2CCCN2C(=O)[C@H](CC(C)C)NC(=O)[C@H](C)N(C)C1=O | 4.3
CC(C)C[C@@H]1NC(=O)[C@H]([C@@H](C)O)N(C)C(=O)[C@H]2CCCN2C(=O)[C@H](CC(C)C)NC(=O)[C@H](C)N(C)C(=O)[C@H](CC(C)C)NC(=O)[C@H](Cc2ccccc2)N(C)C(=O)[C@H]2CCCN2C(=O)[C@H](CC(C)C)NC(=O)[C@H](C)N(C)C1=O | 5.7

Could you now look at the following compound, please?
-- ask What value of logD has been recorded for this entry: CC(C)C[C@@H]1NC(=O)[C@H](C(C)C)N(C)C(=O)[C@H]2CCCN2C(=O)[C@H](CC(C)C)NC(=O)[C@@H](C)N(C)C(=O)[C@H](CC(C)C)NC(=O)[C@H](C(C)C)N(C)C(=O)[C@H](C)N(C)C(=O)[C@H](CC(C)C)NC(=O)[C@@H](C)N(C)C1=O
-- reply 5.2
